Target: T1, Anti-CD28 scFv (VH-linker 1-VL) (biotinylated (site not stated))
T1 construct: biotinylated and captured on neutravidin coated plates in the phage ELISA
T1 sequence (scFv, as listed by the source): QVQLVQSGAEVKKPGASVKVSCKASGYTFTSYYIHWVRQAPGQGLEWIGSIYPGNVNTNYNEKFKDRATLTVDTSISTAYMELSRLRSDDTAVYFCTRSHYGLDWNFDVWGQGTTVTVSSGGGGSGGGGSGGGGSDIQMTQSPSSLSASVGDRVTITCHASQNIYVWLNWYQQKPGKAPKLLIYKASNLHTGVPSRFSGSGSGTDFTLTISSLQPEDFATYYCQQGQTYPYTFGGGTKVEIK
Experiment: phage ELISA, captured biotinylated scFv; background signal 0.062
Listing of entries alongside the reported Phage binding ELISA CD28 scFv signal.
endpoint.name: Phage binding ELISA CD28 scFv signal

binder: MDWCPRDMWSVCFS [Phage-32]
observed: 2.62

binder: MDWCPRFLWSECFN [Phage-95]
observed: 2.57

binder: MDWCPINLWDECFS [Phage-52]
observed: 1.5

binder: MDWCPRYLWTECFN [Phage-100]
observed: 2.56

Data credit: patent US20230357447A1
